// values below are reported growth inhibition
Test: NCI Yeast Anticancer Drug Screen. Data for the rad50 strain (AID 155);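 note: 0% = growth of vehicle-only cultures of the same strain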
Settings: S. cerevisiae rad50 strain growth inhibition; at 50.0 µM; stronger effect = higher value
Protocol: Growth inhibition of yeast strains with defined genetic alterations is measured as a screen for potential anti-cancer activity. Selected strains with alterations in DNA damage repair or cell cycle control were exposed to compounds and growth inhibition was measured relative to vehicle treated controls. The strain used in this assay is rad50
Compounds without any hit were thinned out: in the full panel of roughly 79,000, 15% have a hit.
readout name: growth inhibition (%)

| molecule | observed result |
| --- | --- |
| Cc1cc(C)n(-c2ccc([N+](=O)[O-])cn2)n1 | 4.55 |
| CNc1nnnn1-c1ccccc1C | -10.8 |
| Cn1c(=O)c2c(n(C)c1=O)[n+]([O-])c([N+]1([O-])CCOCC1)n2C | -3.85 |
| Cc1cc2c(c(C(=O)NCCC(=O)N[C@@H](C)C(=O)OCc3ccccc3)c1)Oc1c(cc(C)cc1C(=O)NCCC(=O)N[C@@H](C)C(=O)OCc1ccccc1)S2 | 24 |
| CS(=O)(=O)OCC1COCC1COS(C)(=O)=O (stereo not given) | 26.8 |
| CNc1n[nH]c(-c2ccccc2)n1 | 4.85 |
| CC(Cc1ccccc1)c1ccccc1 (stereo not given) | 15.9 |
| Clc1c(-c2ccccc2)oc2nc3ccccc3nc12 | 13.9 |
| CO[Si](C)(C)OC | -6.65 |
| Cc1c(C)c(C)c(Br)c(C)c1C | -6.7 |

====

Assay: NCI Yeast Anticancer Drug Screen. Data for the sgs1 mgt1 strain (AID 161);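 note: 0% = growth of cultures given vehicle only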
Conditions: S. cerevisiae sgs1 mgt1 strain, at 50.0 µM, stronger effect = higher value
About 79,000 compounds went through this panel and 15% of them were active in at least one assay; those are over-represented in the sample as a whole.
readout name: growth inhibition (%)

| molecule | observed result |
| --- | --- |
| O=C1OC2(OC2c2ccccc2)c2ccccc21 (configuration not stated) | -37.2 |
| O=C([O-])c1ccc2c(c1)-c1nc-2nc2[n-]c(nc3nc(nc4[n-]c(n1)c1ccc(C(=O)[O-])cc41)-c1cc(C(=O)[O-])ccc1-3)c1ccc(C(=O)[O-])cc21.[Fe+2] | -13.6 |
| O=C(Nc1ccccc1)c1cc(S(=O)(=O)n2cc[nH]c2=O)c(S)cc1Cl | 5.1 |
| Cc1cccn2nnnc12 | -9.1 |
| N#C/C(N)=C(\C#N)N=CN | -7.1 |
| O=C1OC2CCCC[C@@H]2C2C[C@]34CCCCC3[C@@H](C(=O)O4)C12 (some centres not stated) | 9.9 |
| O=[N+]([O-])c1ccc(CN(Cc2ccc([N+](=O)[O-])cc2)c2ccc3c(c2)C(O)c2ccccc2-3)cc1 (configuration not stated) | 7.8 |
| Cn1c(=O)c2c(ncn2CCNCC(O)c2cc(C(C)(C)C)c(O)c(C(C)(C)C)c2)n(C)c1=O (configuration not stated) | 19 |
| CCOC(=O)C(=CN1C/C(=C/C(C)=C/c2ccccc2)SC1=S)C(=O)OCC | 11.7 |
| CC1CCC2CC(=O)C(Br)CC2(C)C1C (configuration not stated) | 9.75 |
| CN(C)CCN1C(=O)CC[C@@]2(C)C1=CC[C@@H]1[C@@H]2CC[C@@]2(C)[C@H]1CC[C@]2(C)O | -18.6 |
| COC(=O)CC(NC(=O)C(Cc1cncn1C(=O)OCc1ccccc1)NC(=O)OCc1ccccc1)C(=O)O (configuration not stated) | 0.45 |
| CN1C(=O)C(O)Nc2ncncc21 (configuration not stated) | -4.55 |
| COc1ccc(-c2cc3cc(CCCOC4OC(COC5OCC(O)C(O)C5O)C(O)C(O)C4O)cc(OC)c3o2)cc1OC (configuration not stated) | 34.6 |
| c1ccc2c(c1)Nc1nsnc1N2 | -6 |
| CCC1SC(N)=NC1c1ccccc1 (configuration not stated) | 31.9 |
| COc1cc(C=O)ccc1OC(=O)Nc1cccc(C(C)=O)c1 | 15.9 |
